- Read-out: Intercellular Adhesion Molecule 1 (ICAM1), ICAM1 (gene 3383)
- test-name: BSK_3C_ICAM1: BioMAP Diversity Plus: 3C Assay for Intercellular Adhesion Molecule 1 (ICAM1) Biomarker Activity (AID 2283003)
- experimental-conditions: primary human endothelial cells (HUVEC); actives raise or lower the signal
- Description: BSK_3C is a cell-based, multiplexed-readout assay that uses umbilical vein endothelium, a human vascular primary cell, with measurements taken at 24 hours after chemical dosing in a 96-well plate.BSK_3C_ICAM1 is an assay component measured in the BSK_3C assay. It measures ICAM-1 antibody related to regulation of gene expression using ELISA technology.Data from the assay component BSK_3C_ICAM1 was analyzed into 1 assay endpoint. […]
Calls of active or inactive are those of the source. Rule for the calls: active = hit-call score of the fitted dose curve at least 0.9, where 1 is the maximum; inactive = score below 0.9.
Outcomes you can answer with include only these: Yes = active, No = inactive

QUERY: Write down the call the test reported for this molecule. Item: `O=C(O)c1ccccc1-n1cc(C(=O)O)c(=O)c2cc(Nc3c(F)cc(F)cc3Cl)c(Cl)cc21`
RESULT: No

QUERY: Hello, I am checking results. What call was entered for COCC(C)OCC(C)OCC(C)O (stereo not drawn) ?
RESULT: No

QUERY: Called result for `C[C@]12CC[C@@H]3c4ccc(O)cc4CC[C@H]3[C@@H]1CCC2=O`
RESULT: No

QUERY: What classification did `CCCOC(=O)c1cc(O)c(O)c(O)c1` end up with in this test?
RESULT: No

QUERY: Assay outcome for `CCCCCc1ccc(N)cc1` : what was it?
RESULT: No

QUERY: What call does the record list for `O=C1c2ccccc2C(=O)N1CCc1noc(-c2ccc(CN3CCCCCC3)s2)n1` ?
RESULT: No

QUERY: # fetch the recorded call for `CCCCCCCCOC(=O)c1cc(O)c(O)c(O)c1` here
RESULT: Yes

QUERY: Outcome? `Clc1ccccc1C(c1ccccc1)(c1ccccc1)n1ccnc1`
RESULT: Yes

QUERY: // return assay outcome for `C[C@]12CC[C@@H]3c4ccc(O)cc4CC[C@H]3[C@@H]1CC[C@H]2O`
RESULT: No

QUERY: Give the logged outcome of this assay for the following molecule: `c1ccc(C[n+]2cccc3ccccc32)cc1`
RESULT: No

QUERY: Answer briefly: the call reported for `Cc1oc2c(NC(=O)c3c(Cl)cccc3Cl)cccc2c1C(C)(C)O` in this assay.
RESULT: No

QUERY: Status in this test for `CN(C[C@@H](CC[N+]12CCC(C3CCCCC3)(CC1)CC2)c1ccc(Cl)c(Cl)c1)C(=O)c1cc(C(F)(F)F)cc(C(F)(F)F)c1` ?
RESULT: Yes

QUERY: Call for entry `O=c1ccc2ccccc2o1` :
RESULT: No

QUERY: Tell me the assay call for `CO[C@H]1/C=C/O[C@@]2(C)Oc3c(C)c(O)c4c(O)c(c(/C=N/N5CCN(C)CC5)c(O)c4c3C2=O)NC(=O)/C(C)=C\C=C\[C@H](C)[C@H](O)[C@@H](C)[C@@H](O)[C@@H](C)[C@H](OC(C)=O)[C@@H]1C` please.
RESULT: No

QUERY: Tell me the recorded outcome of this test for `Cc1ncc(CO)c(CO)c1O` .
RESULT: No

QUERY: Dear all, I need the recorded test outcome for `Clc1cc(Cl)c2c(c1)N=C1CCCCCN1C2` , thank you.
RESULT: No

QUERY: Each molecule tested received a call. Report the one for `Oc1ccccc1` .
RESULT: No

QUERY: Given `O=c1c(-c2ccc(O)cc2)coc2cc(O)cc(O)c12` , state the outcome it received in this test.
RESULT: No

QUERY: Tell me the recorded outcome of this test for `O=C(OCCCCCCOC(=O)c1ccccc1)c1ccccc1` .
RESULT: No

QUERY: Record request — test call for `CC(C)(O)c1ccc(CNC(=O)c2cccnc2Oc2ccc3nonc3c2)cc1`
RESULT: No

QUERY: Could you please tell me the result logged for `CCCCCCCCCCCO` in this assay?
RESULT: Yes

QUERY: What is the recorded call for this molecule in the test? `CN(C)c1ccc(C(=C2C=CC(=[N+](C)C)C=C2)c2ccc(N(C)C)cc2)cc1`
RESULT: Yes

QUERY: Short answer needed: outcome of this test for `O=C(O)c1ccccc1C(=O)OCc1ccccc1` ?
RESULT: No

====

- Read-out: Forkhead box O1 (FOXO1), FOXO1 (gene 2308)
- test-name: LTEA_HepaRG_FOXO1: Life Technologies and Expression Analysis (LTEA) Assay for Forkhead box O1 (FOXO1) using HepaRG (AID 2283456)
- experimental-conditions: mRNA level, 48 h; actives raise or lower the signal
- Method: LTEA_HepaRG is a cell based, multiplexed-readout assay that uses HepaRG, a human liver cell line, with measurements taken at 48 hours after chemical dosing on a 96-well plate.LTEA_HepaRG_FOXO1 is one of 102 assay component(s) measured in the LTEA HepaRG cell culture assay. It is a marker of Cell proliferation, survival, death.Data from the assay component LTEA_HepaRG_FOXO1 was analyzed into 1 endpoint. […]
Active and inactive are the calls of the source. The calls were made as follows: active = hit-call score of the fitted dose curve at least 0.9, where 1 is the maximum; inactive = score below 0.9.
Pick one and only one: yes (1) = active, no (0) = inactive

QUERY: Can you look up the reported call for `O=c1c(-c2ccc(O)cc2)coc2cc(O)cc(O)c12` for me?
RESULT: no (0)

QUERY: # lookup: test call for `CC1(C)NC(=O)N(c2ccc([N+](=O)[O-])c(C(F)(F)F)c2)C1=O`
RESULT: no (0)

QUERY: What classification did `CC(=O)N1CCN(c2ccc(OC[C@H]3CO[C@](Cn4ccnc4)(c4ccc(Cl)cc4Cl)O3)cc2)CC1` end up with in this test?
RESULT: yes (1)

QUERY: Outcome logged for `CN(C[C@@H](CC[N+]12CCC(C3CCCCC3)(CC1)CC2)c1ccc(Cl)c(Cl)c1)C(=O)c1cc(C(F)(F)F)cc(C(F)(F)F)c1` in this assay:
RESULT: yes (1)

QUERY: Give the logged outcome of this assay for the following compound: `Clc1cc(Cl)c2c(c1)N=C1CCCCCN1C2`
RESULT: no (0)

QUERY: Would you mind telling me which call this test gave `O=C(O)c1ccccc1-n1cc(C(=O)O)c(=O)c2cc(Nc3c(F)cc(F)cc3Cl)c(Cl)cc21` ?
RESULT: no (0)

QUERY: Hi, do you know how `c1ccc2ccccc2c1` came out in this test?
RESULT: no (0)

QUERY: Look up the recorded call for `CCN(CC)C(=O)c1cc(S(=O)(=O)Cc2ccccc2)c(N2CCC(c3ccccc3)CC2)cc1N(CC)CCN(C)C` in this test.
RESULT: no (0)

QUERY: I'd appreciate the recorded outcome for `O=c1ccc2ccccc2o1` from this test.
RESULT: no (0)

QUERY: Outcome? `O=c1[nH]sc2ccccc12`
RESULT: no (0)

QUERY: What outcome does the record of this test show for `CCCCOC(=O)CC(CC(=O)OCCCC)(OC(C)=O)C(=O)OCCCC` ?
RESULT: no (0)

QUERY: Could you kindly confirm the outcome this assay logged for `O=C(OCCCCCCOC(=O)c1ccccc1)c1ccccc1` ?
RESULT: no (0)

QUERY: What call does the record list for `CC(C)(c1cc(Br)c(O)c(Br)c1)c1cc(Br)c(O)c(Br)c1` ?
RESULT: no (0)

QUERY: Please indicate how the test categorized `O=C1CCC(C2CCCCC2)CC1` .
RESULT: no (0)

QUERY: Identify the outcome logged in this assay for the compound shown: `CCCOC(=O)c1cc(O)c(O)c(O)c1`
RESULT: no (0)

QUERY: I'd appreciate the recorded outcome for `CCO[Si](CCCNC(N)=O)(OCC)OCC` from this test.
RESULT: no (0)

QUERY: Recorded test call requested for `CCCCOC(=O)c1ccc(O)cc1`
RESULT: no (0)

QUERY: Hello, I am checking results. What call was entered for `CC/C(=C(/CC)c1ccc(O)cc1)c1ccc(O)cc1` ?
RESULT: yes (1)

QUERY: Short answer needed: outcome of this test for `CCCCCCCCCCCO` ?
RESULT: no (0)

QUERY: Please share the test call associated with `O=C1O[C@H]([C@@H](O)CO)C(O)=C1O` .
RESULT: no (0)

QUERY: How did this test come out for `O=C(O)Cn1c(=O)n(Cc2ccc(Br)cc2F)c(=O)c2ccc(Cl)cc21` ?
RESULT: no (0)

QUERY: Give the logged outcome of this assay for the following compound: `O=C(Nc1ccc(Cl)cc1)Nc1ccc(Cl)c(Cl)c1`
RESULT: yes (1)

QUERY: Short answer needed: outcome of this test for `C[C@]12CC[C@@H]3c4ccc(O)cc4CC[C@H]3[C@@H]1CC[C@H]2O` ?
RESULT: no (0)

QUERY: Can you look up the reported call for `CO[C@H]1/C=C/O[C@@]2(C)Oc3c(C)c(O)c4c(O)c(c(/C=N/N5CCN(C)CC5)c(O)c4c3C2=O)NC(=O)/C(C)=C\C=C\[C@H](C)[C@H](O)[C@@H](C)[C@@H](O)[C@@H](C)[C@H](OC(C)=O)[C@@H]1C` for me?
RESULT: no (0)

QUERY: Any idea what this test logged for `CN(C)c1ccc(C(=C2C=CC(=[N+](C)C)C=C2)c2ccc(N(C)C)cc2)cc1` ?
RESULT: yes (1)

QUERY: Hey, what did the test say about `CC1=CC(=O)/C(=C(/C)O)C(=O)O1` ?
RESULT: no (0)

QUERY: State the result this test recorded for `Cc1oc2c(NC(=O)c3c(Cl)cccc3Cl)cccc2c1C(C)(C)O` .
RESULT: no (0)

QUERY: Hi team, can someone confirm the assay call for `CCCCCCCCCCCC[N+](C)(C)C` ?
RESULT: no (0)

QUERY: Please let me know the test result on file for `COc1ccc2cc(S(=O)(=O)N[C@H](CC(=O)N[C@H](Cc3ccc(CN4[C@H](C)CCC[C@@H]4C)cc3)C(=O)N(C)C(C)C)c3ccc4c(c3)OCO4)ccc2c1` .
RESULT: yes (1)

QUERY: Status in this test for COCC(C)OCC(C)OCC(C)O (stereo not drawn) ?
RESULT: no (0)

QUERY: Please share the test call associated with `Oc1ccccc1` .
RESULT: no (0)

QUERY: What was the test verdict on `CCCCCCCCN(C)CCCCCCCC` ?
RESULT: no (0)

QUERY: // return assay outcome for `CCCCCCCCOC(=O)c1cc(O)c(O)c(O)c1`
RESULT: no (0)

QUERY: # fetch the recorded call for `O=C=NCCCCCCN=C=O` here
RESULT: no (0)

QUERY: Entry OC12N=C(c3ccccc3)SC1Cc1cc(Cl)ccc12 (stereo not drawn) : call = ?
RESULT: no (0)

QUERY: Test call, this compound: `CCCC(=O)OCCC(C)C`
RESULT: no (0)

QUERY: What call does the record list for `CN1C(=O)CC[C@H]1c1cccnc1` ?
RESULT: no (0)

QUERY: Per the assay record, what outcome was assigned to `Cc1occc1C(=O)Nc1ccc(C(=O)N2CCC(F)(F)/C(=C\C(=O)N3CCC(N4CCCCC4)CC3)c3ccccc32)cc1` ?
RESULT: no (0)
